Every entry's value here was drawn from paper PMC6792352.

assay: in vitro; conditions: rat, gh3-tre-luc cells, AC50 (uM) modified / 1000
Non-standard residues stand in square brackets, D forms with d. Residues, ends and D or L forms follow the SMILES beside them. Orn = NCCC[C@H](N)C(=O)O
measured.endpoint: CC50 at 24 h

These recorded examples may help you get a feel for the data.
compound="CC(C)C[C@@H]1NC(=O)[C@H](CCCN)NC(=O)[C@H](C(C)C)NC(=O)[C@@H]2CCCN2C(=O)[C@@H](Cc2ccccc2)NC(=O)[C@H](CC(C)C)NC(=O)[C@H](CCCN)NC(=O)[C@H](C(C)C)NC(=O)[C@@H]2CCCN2C(=O)[C@@H](Cc2ccccc2)NC1=O [Gramicidin S] (cyclo(L[dF]PV[Orn]L[dF]PV[Orn]))" measured_endpoint="CC50 at 24 h" recorded_measurement="3.05 µM"
compound=CCO[Si](CCC#N)(OCC)OCC measured_endpoint="CC50 at 24 h" recorded_measurement="> 90 µM"
compound="CC1=CC[C@H]2C[C@@H]1C2(C)C [(-)-alpha-Pinene]" measured_endpoint="CC50 at 24 h" recorded_measurement="> 90 µM"

*Q* Give its CC50 at 24 h value. Item: CC(C)c1ccc(NC(=O)N(C)C)cc1
*A* > 90 µM

*Q* Item CCC(C)COC(C)=O (stereo not drawn) [2-Methylbutyl acetate] has what recorded CC50 at 24 h?
*A* > 90 µM

*Q* // returns reported CC50 at 24 h for input COC(=O)c1ccc(C(=O)O)cc1
*A* > 90 µM

###

assay: in vitro; details: rat, gh3-tre-luc cells, AC50 (uM) modified / 1000
Where a name gives a salt, the structure may show the parent alone.
measured.endpoint: CC50 at 24 h

Study these solved cases before continuing.
compound="C=CS(=O)(=O)O [Sodium ethenesulfonate]" recorded_measurement="> 50 µM"
compound=NC(=O)[C@@H]1CCCN1C(=O)[C@H](Cc1cnc[nH]1)NC(=O)[C@@H]1CCC(=O)N1 recorded_measurement="> 50 µM"
compound=Cn1sccc1=O recorded_measurement="30.8 µM"
compound=CCCCCCCCCCCCN1CCCCCC1=O recorded_measurement="45.3 µM"
compound="C#CC(C)N(C)C(=O)Nc1ccc(Cl)cc1 (stereo not shown)" recorded_measurement="> 90 µM"

*Q* Form field: reported CC50 at 24 h of CCCCOCCOC(=O)COc1cc(Cl)c(Cl)cc1Cl
*A* > 90 µM

*Q* Fill in: CC50 at 24 h of CN1CCN(c2cc3c(cc2F)c(=O)c(C(=O)O)cn3-c2ccc(F)cc2)CC1 [Difloxacin hydrochloride] is ___
*A* > 50 µM

*Q* Dear colleague, I am looking for the recorded CC50 at 24 h of the following compound: C=CCN(CC=C)C(=O)C(Cl)Cl
*A* > 90 µM

*Q* Would you mind telling me what CC50 at 24 h value was observed for CC1CC(CC2CCC(N)C(C)C2)CCC1N (stereo not shown) ?
*A* 46.8 µM

*Q* # lookup: CC50 at 24 h of C[N+](C)(C)CCOC(=O)C(O)(c1ccccc1)c1ccccc1 [Metocinium iodide]
*A* > 50 µM

*Q* Fill in the blank: the reported CC50 at 24 h of Cc1cccc(N)c1 [3-Methylaniline hydrochloride] is ____.
*A* > 90 µM

*Q* I would be grateful if you could share the reported CC50 at 24 h for COC(=O)CC(=O)C(C)(C)C [Methyl pivaloylacetate] .
*A* > 90 µM

*Q* Report CC50 at 24 h for NCc1ccc(S(N)(=O)=O)cc1 [Mafenide hydrochloride] please.
*A* > 20 µM
